Data provenance: the supplement of paper PMC11061612

tested on: BxPC-3 (Pancreatic Carcinoma); experiment: Bliss excess, mean over the matrix (fraction); higher = more synergy;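 note: after 72 h of two-drug dosing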
List of Bliss excess values.

Cn1cnc2c(F)c(Nc3ccc(Br)cc3Cl)c(C(=O)NOCCO)cc21 [Selumetinib] + CCN(CCO)CCCOc1ccc2c(Nc3cc(CC(=O)Nc4cccc(F)c4)[nH]n3)ncnc2c1 [AZD2811] (first compound max 10 µM, 7x7, partner max 1 µM): -0.057
NC1(C(=O)N[C@@H](CCO)c2ccc(Cl)cc2)CCN(c2ncnc3[nH]ccc23)CC1 [Capivasertib] + CC(C)n1c(=O)n(C)c2cnc3cc(F)c(-c4ccc(OCCCN5CCCCC5)nc4)cc3c21 [AZD1390] (first compound max 10 µM, 7x7, partner max 0.3 µM): -0.0361
COc1cccc(OCCCN)c1-c1cc(Nc2cnc(C#N)cn2)n[nH]1 [Prexasertib] + CN(C)CCCOc1ccc(-c2ccc3ncc4c(c3c2)n(C2CCOCC2)c(=O)n4C)cn1 [AZD0156] (first compound max 1 µM, 7x7, partner max 1 µM): -0.0582

Which Bliss excess value is on record for CCN(CCO)CCCOc1ccc2c(Nc3cc(CC(=O)Nc4cccc(F)c4)[nH]n3)ncnc2c1 [AZD2811] + C=CCn1c(=O)c2cnc(Nc3ccc(N4CCN(C)CC4)cc3)nc2n1-c1cccc(C(C)(C)O)n1 [AZD1775] (first compound max 1 µM, partner max 1 µM) ?
-0.0099

Which Bliss excess value is on record for Cc1c2c(nn1C)CSCc1cc(n(C)n1)CSc1cc(c3ccccc3c1)OCCCc1c(C(=O)O)n(C)c3c-2c(Cl)ccc13 [AZD5991] + Cn1cnc2c(F)c(Nc3ccc(Br)cc3Cl)c(C(=O)NOCCO)cc21 [Selumetinib] (first compound max 1 µM, 7x7, partner max 3 µM) ?
0.0457

Which Bliss excess value is on record for C[C@@H](Oc1cc(-c2cnn(C3CCNCC3)c2)cnc1N)c1c(Cl)ccc(F)c1Cl [Crizotinib] + Cn1cnc2c(F)c(Nc3ccc(Br)cc3Cl)c(C(=O)NOCCO)cc21 [Selumetinib] (first compound max 10 µM, 7x7, partner max 10 µM) ?
-0.0323

Which Bliss excess value is on record for CCN(CCO)CCCOc1ccc2c(Nc3cc(CC(=O)Nc4cccc(F)c4)[nH]n3)ncnc2c1 [AZD2811] + C[C@@H]1COCCN1C2=NC(=NC(=C2)C3(CC3)[S@](=N)(=O)C)C4=C5C=CNC5=NC=C4 [AZD6738] (first compound max 1 µM, 7x7, partner max 10 µM) ?
-0.0352
